protocol details: Confirmatory qHTS for Inhibitors of ATXN expression; note: nearly all actives have a fitted effect of over 65% in size
particulars: ATXN2-luciferase reporter cells, luminescence, 24 h; series mostly up to 11.5 µM
Source text: PI: Daniel Scoles Ph.D. University of Utah School of Medicine, Salt Lake City, Utah MLPCN Grant: NS073009 Spinocerebellar ataxia type 2 (SCA2) is a multisystem neurodegenerative disease caused by a dominantly acting mutation leading to expansion of a polyQ domain in the ataxin-2 protein (ATXN2). SCA2 patients develop progressive ataxia and later lose function in other neuronal systems. […] Here we describe a 5-7 dose quantitative high thoroughput screen (qHTS) for compounds lowering ATXN2 expression. […]
Hit rate of the full screen: of about 2,100 compounds, about 940 (45%) were called active. Not shown: some 48% with an inconclusive outcome. Calls come from the whole dose curve; as a rule, active = well fitted inhibition curve with a large enough effect; inconclusive = small, poorly fitted or top-dose-only effect; inactive = no such curve, though single readings can be large or run the other way. The set was probably picked from earlier hits. Some of the results follow.
Parameter call: string, one of active, inactive

Please state the recorded outcome for this compound: NC(=Nc1nc(-c2ccccn2)cc2ccccc12)c1ccccn1
active

Please state the recorded outcome for this compound: COc1ccc(CC(=O)N/N=C(\C)c2ccccn2)cc1
active

Please state the recorded outcome for this compound: Cc1ccc(S(=O)(=O)Nc2cccc3cccnc23)cc1
active

Please state the recorded outcome for this compound: CS(=O)(=O)Nc1ccccc1C(=O)Nc1cc(Cl)cc(Cl)c1
active

Please state the recorded outcome for this compound: COc1ccc(F)cc1-c1cc(NC=O)c2ncc(-c3cccc(C(=O)N(C)C)c3)n2c1
active

###

protocol details: Confirmatory qHTS for Inhibitors of ATXN expression; note: nearly all actives have a fitted effect of over 65% in size; note: potency is the fitted concentration of half-maximal effect
particulars: ATXN2-luciferase reporter cells, luminescence, 24 h; series mostly up to 11.5 µM
The whole screen tested about 2,100 compounds, of which about 940 (45%) were called active. About 48% were inconclusive and are not listed. So high a share suggests a set chosen from earlier hits. The list shows a part of the results.
attribute measured: Potency

Answered cases to consult:
compound	Potency
COc1cc(C)c(C(=O)CC(=O)c2c(C)cc(OC)cc2C)c(C)c1	inactive
O=C(CN1CCOCC1)N/N=C/c1c(O)ccc2ccccc12	7.08 µM (active)
Cc1ccsc1/C=C/C1=Cc2c(sc(NC(=O)CSc3n[nH]c(N)n3)c2C#N)C(C)(C)C1	inactive
CCOc1ccc(/C=N/NC(=O)C(O)c2ccccc2)c(O)c1 (stereo unspecified)	3.16 µM (active)
Cc1cc(C)c2nc(NNC(=O)c3ccc(S(=O)(=O)N4CCc5ccccc5C4)cc3)sc2c1	3.16 µM (active)

What value of measured Potency is listed for COc1cc(OC)c2cc(C(=O)N/N=C/c3cccc(OC)c3O)[nH]c2c1 ?
3.55 µM (active)

What value of measured Potency is listed for Cc1c(C(=O)Nc2nonc2-c2ccc(F)cc2)oc2ccc(F)cc12 ?
25.1 µM (active)

###

protocol details: Confirmatory qHTS for Inhibitors of ATXN expression; note: nearly all actives have a fitted effect of over 65% in size
particulars: ATXN2-luciferase reporter cells, luminescence, 24 h; series mostly up to 11.5 µM
Hit rate of the full screen: of about 2,100 compounds, about 940 (45%) were called active. About 48% were inconclusive and are not listed. Calls come from the whole dose curve; as a rule, active = well fitted inhibition curve with a large enough effect; inconclusive = small, poorly fitted or top-dose-only effect; inactive = no such curve, though single readings can be large or run the other way. The set was probably picked from earlier hits. This is one part of the list.
Parameter call: string, one of True for active, False for inactive

Examples from the recorded data:
molecule	class assignment
Cc1cc(C)c(S(=O)(=O)/N=C2\C=C(Nc3ccc(C(=O)O)cc3)C(=O)c3ccccc32)c(C)c1	True
O=C(CCc1ccccc1)NC(c1cccs1)c1cc(Cl)c2cccnc2c1O (stereo not given)	True
Cc1cc2nc(-c3nnnn3Cc3ccccc3)c(=O)[nH]c2cc1C	False
Cc1ccc2[nH]c(=O)c(CN(CCCN(C)C)C(=O)Nc3cccc(Cl)c3)cc2c1	True

Shifting focus to the molecule that follows.
Please state the recorded outcome for this molecule: CC1=NN(c2nc3ccccc3[nH]2)C(=O)C1Cc1ccccc1 (stereo not given)
True
